Species on record: Rattus norvegicus
Assay: Open TG-GATES - Regimen: Single
Format: toxicity, organism-based, Sprague-Dawley
Design: regimen Single, gender Male, age 6 weeks
Conditions: in vivo, po, 300 mg/kg, 6 h, tissue Plasma, route gavage, dose level Middle
Experimental Endpoint: TBIL (mg/dL)
The reply should contain only the number, in mg/dL.

Task item: Dear colleague, I am looking for the recorded TBIL of the following molecule: O=C(O)c1cn(C2CC2)c2cc(N3CCNCC3)c(F)cc2c1=O [CIPROFLOXACIN]
Reply: 0.4

Task item: Thanks! And C[C@H](CS)C(=O)N1CCC[C@H]1C(=O)O [CAPTOPRIL] ?
Reply: 0.5

Task item: Entry to check: O=C(O)c1cc(/N=N/c2ccc(S(=O)(=O)Nc3ccccn3)cc2)ccc1O [SULFASALAZINE]
Reply: 0.1

Task item: Same question for CCc1cc(C(N)=S)ccn1 [ETHIONAMIDE] please.
Reply: 0.5

Task item: Next entry: Clc1ccccc1CN1CCc2sccc2C1 [TICLOPIDINE]
Reply: 0.1

* * *

Species on record: Rattus norvegicus
Assay: Open TG-GATES - Regimen: Daily Repeat
Type: toxicity, organism-based, Sprague-Dawley
Parameters: regimen Daily Repeat, gender Male, age 6 weeks
Settings: in vivo, po, 0 mg/kg, 72 h, tissue Plasma, route gavage, dose level Control, time 3 day
Experimental Endpoint: TP (g/dL)
Reply with just the number (in g/dL).

Task item: What value of TP has been recorded for this entry: CC(=O)Oc1ccccc1C(=O)O [ASPIRIN]
Reply: 5.7

Task item: How about this compound: O=C(O)c1cc(/N=N/c2ccc(S(=O)(=O)Nc3ccccn3)cc2)ccc1O [SULFASALAZINE]
Reply: 5.7

Task item: Let us now turn to NC(=O)N/N=C/c1ccc([N+](=O)[O-])o1 [NITROFURAZONE]
Reply: 5.6

Task item: Now try Clc1ccccc1CN1CCc2sccc2C1 [TICLOPIDINE] .
Reply: 5.5

Task item: Also check O=C(O)c1cn(C2CC2)c2cc(N3CCNCC3)c(F)cc2c1=O [CIPROFLOXACIN]
Reply: 5.9

Task item: Then this compound: CCc1cc(C(N)=S)ccn1 [ETHIONAMIDE]
Reply: 5.8

Task item: Okay, and C[C@H](CS)C(=O)N1CCC[C@H]1C(=O)O [CAPTOPRIL] ?
Reply: 5.7

Task item: Subsequent entry: CO[C@H]1/C=C/O[C@@]2(C)Oc3c(C)c(O)c4c(O)c(c(/C=N/N5CCN(C)CC5)c(O)c4c3C2=O)NC(=O)/C(C)=C\C=C\[C@H](C)[C@H](O)[C@@H](C)[C@@H](O)[C@@H](C)[C@H](OC(C)=O)[C@@H]1C [RIFAMPIN]
Reply: 6.1

Task item: Consider next the compound COc1ccc2c(c1)c(CC(=O)O)c(C)n2C(=O)c1ccc(Cl)cc1 [INDOMETHACIN] in the same way.
Reply: 5.7

Task item: // same read-out, input: COc1ccc(Cc2nccc3cc(OC)c(OC)cc23)cc1OC [PAPAVERINE]
Reply: 5.5

Task item: Now this one: CSc1ccc2c(c1)N(CCC1CCCCN1C)c1ccccc1S2 (stereo not given) [THIORIDAZINE]
Reply: 6

Task item: Repeat for the following compound: CCCC(CCC)C(=O)O [VALPROIC ACID]
Reply: 5.4

Task item: Thanks! And Cn1c(=O)c2[nH]cnc2n(C)c1=O.O [THEOPHYLLINE] ?
Reply: 5.5

Task item: Field entry: NC(=O)N1c2ccccc2C=Cc2ccccc21 [CARBAMAZEPINE]
Reply: 5.6

Task item: Lookup CN(C)CCC=C1c2ccccc2CCc2ccccc21 [AMITRIPTYLINE]
Reply: 5.9

Reference source for all entries: ChEMBL document CHEMBL3885861
